Reported z-score values are given for each entry in this list.
- experiment_description: Pseudomonas biofilm growth suppression – PAO1 strain, BacTiter-Glo luminescence, LB-PBS, primary screen (AID 1144)
- assay_conditions: P. aeruginosa PAO1 biofilm, 12 h, higher = more signal
measure_name: z-score

[[record]]
compound = "CN(C)CCCCCCNC(=O)[C@@H]1C[C@@H]2C(=O)NCC(=O)N2[C@@H]1c1cccc(OCCO)c1"
observed_measurement = -0.418

[[record]]
compound = "CCN(CC)c1ccc(N2CC=CC34O[C@@H]5/C=C\\CCC(C)OC(=O)C5[C@H]3C(=O)N(CCCCCCO)[C@@H]4C2=O)cc1 (stereo not given in full)"
observed_measurement = 0.398

[[record]]
compound = "COC(=O)c1c(CC[C@@H](CO)NC(=O)Nc2ncn[nH]2)oc(C(=O)Cc2ccccc2)c1C(=O)OC"
observed_measurement = 0.152

[[record]]
compound = "[N-]=[N+]=NCc1ccccc1C[C@@]1(C(=O)NCc2ccccc2)N=C(c2ccc(OCCCO)cc2)O[C@@H]1c1ccccc1CN=[N+]=[N-]"
observed_measurement = 0.503

[[record]]
compound = "CN(C)CCCCNC(=O)[C@@H]1C[C@@H]2C(=O)N[C@@H](CCCCN)C(=O)N2[C@@H]1c1cccc(OCCO)c1"
observed_measurement = -0.703

[[record]]
compound = "COCCOC(=O)N1C(=O)[C@@]2(c3cc(C#Cc4ccc(OC)cc4)ccc31)[C@H](C(N)=O)[C@H]1C(=O)O[C@H](c3ccccc3)[C@H](c3ccccc3)N1[C@@H]2c1ccc(O)cc1"
observed_measurement = 0.0989

[[record]]
compound = "Cc1ccc(C(C)CC(O)C2C=CC3C(=O)NC(=O)C3N2Nc2ccccn2)o1 (stereo not given)"
observed_measurement = -1.31

[[record]]
compound = "COCC1=C([C@H](O)CCc2ccccc2)[C@H](CO)[C@@H]2C(=O)N(Cc3ccccc3)C(=O)[C@@H]2C1"
observed_measurement = -0.771

[[record]]
compound = "C=C(C(=O)CC[C@@H](OC(=O)c1cccnc1)c1ccc(CO)o1)C(C)C"
observed_measurement = 0.228

[[record]]
compound = "COCCOC(=O)N1C(=O)[C@@]2(c3cc(C#Cc4ccc(OC)cc4)ccc31)[C@H](c1ccc(O)cc1)N1[C@H](c3ccccc3)[C@H](c3ccccc3)OC(=O)[C@H]1[C@@H]2C(=O)N1CCN(c2ncccn2)CC1"
observed_measurement = -0.166

[[record]]
compound = "CC(=O)NCCCC[C@@H]1NC(=O)[C@@H]2C[C@H](C(=O)NCc3ccc(F)cc3)[C@H](c3ccc(O)cc3)N2C1=O"
observed_measurement = 0.587

[[record]]
compound = "C=C[C@H](OC)[C@@H](OC(=O)Nc1ccc(SC)cc1)c1ccc(OCCO)cc1"
observed_measurement = -1.2

[[record]]
compound = "O=C1OCC=C[C@H]2OC34C=CCN(c5ccc6ccccc6c5)C(=O)[C@H]3N(CCO)C(=O)[C@@H]4[C@@H]12 (stereo not given in full)"
observed_measurement = 1.89

[[record]]
compound = "O=C1C2C=CC(C(O)CCc3ccccc3)N(Nc3ccccc3)C2C(=O)N1c1ccccc1 (stereo not given)"
observed_measurement = -0.857

[[record]]
compound = "CCOC1=C2C(c3ccc(C)cc3)N(S(=O)(=O)c3ccc(C)cc3)CC2n2c(=O)n(-c3ccccc3)c(=O)n2C1 (stereo not given)"
observed_measurement = 1.11

[[record]]
compound = "O=C1O[C@@H](c2ccccc2)[C@@H](c2ccccc2)N2[C@@H](c3ccc(O)cc3)[C@]3(C(=O)Nc4ccccc43)[C@@H](C(=O)N3CCCCCCC3)[C@H]12"
observed_measurement = -0.279

[[record]]
compound = "C[n+]1ccc2ccc(O)cc2c1"
observed_measurement = 0.125

[[record]]
compound = "CN(C)CCCN1C(=O)[C@@]2(c3ccc([N+](=O)[O-])cc3)CC(=O)N(C3CCCCC3)[C@@H]2c2ccc(CO)cc21"
observed_measurement = -1.09

[[record]]
compound = "C=C[C@H](C)[C@H](OC(=O)Nc1ccc(OC)cc1)c1ccc(O)c2ccccc12"
observed_measurement = -0.156

[[record]]
compound = "COc1ccc([Si](C)(C)[C@@H]2[C@@H](CCO)O[C@]3(C(=O)N(Cc4cccc(N5CCCCC5=O)c4)c4ccccc43)[C@H]2C)cc1"
observed_measurement = 0.671

[[record]]
compound = "COCCCNC(=O)[C@@]1(C)c2ccccc2C(=O)N(Cc2ccccc2)[C@H]1c1ccc(CO)cc1"
observed_measurement = -0.453

[[record]]
compound = "Cc1ccc(N2C(=O)c3ccccc3[C@@H](C(=O)NC(C)C)[C@@H]2c2ccc(CO)cc2)nc1"
observed_measurement = -1.83

[[record]]
compound = "O=C1OCCC/C=C\\[C@H]2OC34C=CCN(Cn5nnc6ccccc65)C(=O)[C@H]3N(CCCO)C(=O)[C@@H]4C12 (stereo not given in full)"
observed_measurement = -0.354

[[record]]
compound = "CO[C@H]1O[C@H](CO)[C@@H](OC(=O)Nc2ccccc2-c2ccccc2)[C@H](OC(=O)Nc2ccccc2-c2ccccc2)[C@H]1OC(=O)Nc1ccccc1-c1ccccc1"
observed_measurement = -0.587

[[record]]
compound = "C=CC[C@@]1(C(=O)OC)N=C(c2ccc(OCCCO)cc2)O[C@@H]1c1ccccc1CN=[N+]=[N-]"
observed_measurement = -0.88

[[record]]
compound = "COc1ccc([Si](C)(C)[C@H]2[C@H](CC(=O)N3Cc4ccccc4C[C@H]3CO)O[C@@]3(C(=O)N(Cc4cccc(I)c4)c4ccccc43)[C@@H]2C)cc1"
observed_measurement = -0.194

[[record]]
compound = "CCCCCN1CC=CC23O[C@@H]4C=CCCOC(=O)C4[C@H]2C(=O)N(CCCO)[C@@H]3C1=O (stereo not given in full)"
observed_measurement = -1.06

[[record]]
compound = "O=C1O[C@@H](c2ccccc2)[C@@H](c2ccccc2)N2[C@@H](c3ccc(O)cc3)[C@]3(C(=O)Nc4ccc(C#CCCO)cc43)[C@@H](C(=O)N3CCCCCCC3)[C@H]12"
observed_measurement = -0.547

[[record]]
compound = "CC(c1ccccc1)C(O)C1C=CC2C(=O)N(c3ccccc3)C(=O)C2N1Nc1ccccc1F (stereo not given)"
observed_measurement = -1.29

[[record]]
compound = "O=C1C2C=CC(C(O)c3ccc(B(O)O)cc3)N(Nc3ccc([N+](=O)[O-])cc3)C2C(=O)N1c1ccccc1 (stereo not given)"
observed_measurement = -0.0903

